study-system: human recombinant PARP1 (Homo sapiens, UniProt P09874)
Construct: purchased Trevigen 4677-096-K
Sequence (P09874 whole entry): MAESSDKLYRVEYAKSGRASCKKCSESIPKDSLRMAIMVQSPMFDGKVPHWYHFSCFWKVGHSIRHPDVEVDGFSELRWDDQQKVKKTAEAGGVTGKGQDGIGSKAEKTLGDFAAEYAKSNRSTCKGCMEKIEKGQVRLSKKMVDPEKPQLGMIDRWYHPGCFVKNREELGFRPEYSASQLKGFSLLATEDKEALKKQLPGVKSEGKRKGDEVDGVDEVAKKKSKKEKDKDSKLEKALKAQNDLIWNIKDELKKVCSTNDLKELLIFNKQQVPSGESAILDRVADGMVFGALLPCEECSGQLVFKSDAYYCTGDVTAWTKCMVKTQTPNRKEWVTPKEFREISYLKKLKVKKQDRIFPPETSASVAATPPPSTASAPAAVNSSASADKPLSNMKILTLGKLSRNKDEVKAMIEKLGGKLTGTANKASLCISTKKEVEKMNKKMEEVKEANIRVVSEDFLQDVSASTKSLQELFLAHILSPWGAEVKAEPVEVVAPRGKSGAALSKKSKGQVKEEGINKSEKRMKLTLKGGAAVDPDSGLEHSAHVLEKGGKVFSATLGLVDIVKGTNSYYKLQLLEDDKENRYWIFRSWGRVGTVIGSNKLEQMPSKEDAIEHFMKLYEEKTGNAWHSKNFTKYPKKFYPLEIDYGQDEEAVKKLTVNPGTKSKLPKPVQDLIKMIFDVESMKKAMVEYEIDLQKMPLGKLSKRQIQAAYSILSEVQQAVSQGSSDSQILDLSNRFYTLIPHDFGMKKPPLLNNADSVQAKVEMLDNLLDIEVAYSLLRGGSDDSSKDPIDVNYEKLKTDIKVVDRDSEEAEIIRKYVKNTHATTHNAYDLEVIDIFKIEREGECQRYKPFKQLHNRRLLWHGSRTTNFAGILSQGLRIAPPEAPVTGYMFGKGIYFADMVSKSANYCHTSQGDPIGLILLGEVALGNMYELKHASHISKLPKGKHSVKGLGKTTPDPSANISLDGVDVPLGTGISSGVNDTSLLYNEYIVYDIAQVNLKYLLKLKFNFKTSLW
assay-text: PARP inhibitory activity measurement test (Universal Colorimetric PARP Assay kit, Trevigen)
Type: biochemical
condition-set: compound concentration: 10 μM, read-out: PARP1 inhibition rate (%)
observation-type: inhibition at 10 µM (%)
Give your result in % as a bare value.

The following compounds have reported results that may help.
O=C(c1cc2[nH]c(=O)c3ccccc3n2c1)N1CCN(c2ccc(Cl)cc2)CC1 [Compound 1-12] :: 64
[2H]C([2H])(c1cc2[nH]c(=O)c3ccccc3n2c1)N1CCN(c2ccc(F)cc2)CC1 [Compound 4-1] :: 100
O=C(NCCc1ccccc1)c1cc2[nH]c(=O)c3ccccc3n2c1 [Compound 1-55] :: 81
O=C(Nc1ccccc1)c1cc2[nH]c(=O)c3ccccc3n2c1 [Compound 1-49] :: 36
COc1cccc(N2CCN(Cc3cc4[nH]c(=O)c5ccccc5n4c3)CC2)c1 [Compound 2-26] :: 78
O=c1[nH]c2cc(CN3CCN(c4ccc(F)cc4)CC3)cn2c2ccc(F)cc12 [Compound 2-45] :: 100
O=c1[nH]c2cc(CN3CCCC(c4ccccc4)C3)cn2c2ccccc12 (centres unmarked) [Compound 2-31] :: 66

Attention now turns to another entry.
// query Which measured inhibition at 10 µM value corresponds to O=C(c1cc2[nH]c(=O)c3ccccc3n2c1)N1CCN(c2ccc(F)cc2)CC1 [Compound 1-1] ?
// result 90

* * *

Listing: inhibition at 10 µM of selected compounds
study-system: human recombinant PARP1 (Homo sapiens)
Construct: purchased Trevigen 4677-096-K
assay-text: PARP inhibitory activity measurement test (Universal Colorimetric PARP Assay kit, Trevigen)
Type: biochemical
condition-set: compound concentration: 10 μM, read-out: PARP1 inhibition rate (%)
# answer = value followed by unit

O=c1[nH]c2cc(CN3CC=C(c4ccccc4)CC3)cn2c2ccccc12 [Compound 2-6] :: 100%
O=c1[nH]c2cc(CN3CCN(c4cccc(F)c4)CC3)cn2c2ccccc12 [Compound 2-15] :: 98%
CC1CN(c2ccc(F)cc2)CCN1Cc1cc2[nH]c(=O)c3ccccc3n2c1 (stereo not drawn) [Compound 2-24] :: 99%
O=c1[nH]c2cc(CN3CCN(c4ccc(Cl)cc4)CC3)cn2c2ccsc12 [Compound 2-42] :: 100%
O=c1[nH]c2cc(CN3CCN(c4ccccc4F)CC3)cn2c2ccccc12 [Compound 2-9] :: 99%

// query Find the recorded inhibition at 10 µM belonging to CN(C)C1CCN(Cc2cc3[nH]c(=O)c4ccccc4n3c2)CC1 [Compound 2-22] and report it.
// result 97%

// query And the next one, O=c1[nH]c2cc(CN3CCN(c4ccc(F)cc4F)CC3)cn2c2ccccc12 [Compound 2-35] ?
// result 100%

// query Item: O=C(c1cc2[nH]c(=O)c3ccccc3n2c1)N1CCN(c2ccccc2)CC1 [Compound 1-4]
// result 99%

// query Please give the result for CN(C)CCNC(=O)c1cc2[nH]c(=O)c3ccccc3n2c1 [Compound 1-51] too.
// result 92%

* * *

Below: a set of entries, each annotated with reported inhibition at 10 µM.
study-system: human recombinant PARP1 (Homo sapiens)
Construct: purchased Trevigen 4677-096-K
assay-text: PARP inhibitory activity measurement test (Universal Colorimetric PARP Assay kit, Trevigen)
Assay type: biochemical
condition-set: compound concentration: 10 μM, read-out: PARP1 inhibition rate (%)
Kindly provide the numeric value in % only, without the unit symbol.

O=C(c1cc2[nH]c(=O)c3ccccc3n2c1)N1CCN(c2nccs2)CC1 :: 100
Cc1cccc(N2CCN(Cc3cc4[nH]c(=O)c5ccccc5n4c3)CC2)c1 :: 97
CN(C)CCOc1cc(F)ccc1N1CCN(Cc2cc3[nH]c(=O)c4ccccc4n3c2)CC1 :: 85
O=c1[nH]c2cc(CN3CCN(Cc4ccccc4)CC3)cn2c2ccccc12 :: 99

Now for a further molecule.
// query Reported inhibition at 10 µM for human recombinant PARP1 (Homo sapiens), given O=c1[nH]c2cc(CN3CC=C(c4ccc(Cl)cc4)CC3)cn2c2ccccc12 ?
// result 99

* * *

inhibition at 10 µM reference
study-system: human recombinant PARP1 (Homo sapiens)
Construct: purchased Trevigen 4677-096-K
assay-text: PARP inhibitory activity measurement test (Universal Colorimetric PARP Assay kit, Trevigen)
Format: biochemical
condition-set: compound concentration: 10 μM, read-out: PARP1 inhibition rate (%)
Record the value in %, omitting the unit from your answer.

O=c1[nH]c2cc(CN3CCN(Cc4ccc(Cl)cc4)CC3)cn2c2ccccc12 :: 78

// query Hello, I am looking for reported inhibition at 10 µM with human recombinant PARP1 (Homo sapiens) for O=c1[nH]c2cc(CN3CCN(c4ccc(F)cc4)CC3)cn2c2ccsc12 . Could you help?
// result 100

* * *

study-system: human recombinant PARP1 (Homo sapiens, UniProt P09874)
Construct: purchased Trevigen 4677-096-K
assay-text: PARP inhibitory activity measurement test (Universal Colorimetric PARP Assay kit, Trevigen)
Type: biochemical
condition-set: compound concentration: 10 μM, read-out: PARP1 inhibition rate (%)
observation-type: inhibition at 10 µM (%)
The response must be a number in % with no trailing unit.

O=C(c1cc2[nH]c(=O)c3ccccc3n2c1)N1CCN(Cc2ccccc2)CC1 [Compound 1-11] :: 86
O=C(NCc1ccncc1)c1cc2[nH]c(=O)c3ccccc3n2c1 [Compound 1-52] :: 94
O=c1[nH]c2cc(CN3CCN(c4ccc(O)cc4)CC3)cn2c2ccccc12 [Compound 3-1] :: 100
O=c1[nH]c2cc(CN3CC=C(c4ccc(F)cc4)CC3)cn2c2ccccc12 [Compound 2-8] :: 100
O=c1[nH]c2cc(CN3CCCC3)cn2c2ccsc12 [Compound 2-43] :: 91
O=C(c1cc2[nH]c(=O)c3ccccc3n2c1)N1CCN(Cc2ccc(F)cc2)CC1 [Compound 1-13] :: 67
O=c1[nH]c2cc(CN3CCN(c4ccncc4)CC3)cn2c2ccccc12 [Compound 2-23] :: 100
COc1ccc(N2CCN(Cc3cc4[nH]c(=O)c5ccccc5n4c3)CC2)cc1 [Compound 2-16] :: 100

// query Could you share which inhibition at 10 µM value was measured for O=c1[nH]c2cc(CN3CCN(c4ccc5c(c4)OCO5)CC3)cn2c2ccccc12 [Compound 2-40] ?
// result 100

// query And what about the compound CN1CCN(C(=O)c2cc3[nH]c(=O)c4ccccc4n3c2)CC1 [Compound 1-10] ?
// result 68

// query Query COc1cc(F)ccc1N1CCN(Cc2cc3[nH]c(=O)c4ccccc4n3c2)CC1 [Compound 2-39] next
// result 100

// query Entry O=c1[nH]c2cc(CN3CCN(C4CCCCC4)CC3)cn2c2ccccc12 [Compound 2-27] please
// result 99

// query Now this one: O=c1[nH]c2cc(CN3CCN(c4nccc5occc45)CC3)cn2c2ccccc12 [Compound 2-36]
// result 82

// query Try the compound O=c1[nH]c2cc(CN3CCC(N4CCOCC4)CC3)cn2c2ccccc12 [Compound 2-47]
// result 99

// query Same question, O=C(NCCCc1ccccc1)c1cc2[nH]c(=O)c3ccccc3n2c1 [Compound 1-56] this time
// result 83

* * *

study-system: human recombinant PARP1 (Homo sapiens)
Construct: purchased Trevigen 4677-096-K
assay-text: PARP inhibitory activity measurement test (Universal Colorimetric PARP Assay kit, Trevigen)
Type: biochemical
condition-set: compound concentration: 10 μM, read-out: PARP1 inhibition rate (%)
Measured inhibition at 10 µM, listed per entry.
Just the number in %, nothing appended.

O=c1[nH]c2cc(CN3CCN(c4ccccn4)CC3)cn2c2ccc(F)cc12 :: 98
O=c1[nH]c2cc(CN3CCN(CC4CC4)CC3)cn2c2ccccc12 :: 99

Attention now shifts to the item below.
// query Field request: inhibition at 10 µM | item: O=C(c1cc2[nH]c(=O)c3ccccc3n2c1)N1CCc2ccccc2C1
// result 84
